pIC50: −log10 of the molar value.
Literature survey of pIC50 (system: PIK3CG (human) (UniProt P48736)).

compound	measured.parameter	endpoint.result
Cc1cccc2cc(Cn3nc(-c4cc(O)cc(F)c4)c4c(N)ncnc43)n(C3CC3)c(=O)c12	pIC50	> 7.00
CC[C@H](Nc1ncnc2ccc(C#N)cc12)c1nc2cccc(-c3cncnc3)c2c(=O)n1-c1ccccc1	pIC50	5.44
Cc1cccc2cc(Cn3nc(Br)c4c(N)ncnc43)n(-c3ccccc3F)c(=O)c12	pIC50	> 5.00
CN(C)C(=O)C1CCN(c2ccnc3c2c(/C=C2\Oc4ccc(NC(=O)Nc5ccc(OC6CCOCC6)nc5)cc4C2=O)cn3C)CC1	pIC50	6.20
C[C@H](NC(=O)c1c(N)nn2cccnc12)c1c(C#N)c2cccc(F)c2c(=O)n1-c1ccccc1	pIC50	6.00 to 7.00

**Q:** Give me measured pIC50, please, for this compound: Cn1cc(C=C2Oc3ccc(NC(=O)Nc4cccnc4)cc3C2=O)c2c(N3CCC(C(=O)NC4CCOCC4)CC3)ccnc21
**A:** < 5.00

**Q:** Give a short answer stating reported pIC50 for NC(=O)c1ccc(Nc2nc(-c3cccc(O)c3)nc3c2cnn3C2CCN(Cc3ccccc3)CC2)cc1 .
**A:** 5.15

**Q:** Respond only with pIC50 recorded for COc1cccc2c(Br)c([C@H](C)NC(=O)c3c(N)nn4cccnc34)n(-c3ccccc3)c(=O)c12
**A:** 6.00 to 7.00

**Q:** Output pIC50 of C[C@H](Nc1ncnc2ccccc12)c1cc2cccc(Cl)c2c(C(=O)N2CCOCC2)n1
**A:** > 6.00

----------
# literature pull: PIK3CG (human) (UniProt P48736) IC50
// note: answer is a bare numeric in µM

Sample records with IC50:
test.smiles	unit.name	IC50
CCn1ccc2c(N3CCOCC3)nc(-c3ccc(NC(=O)Nc4ccc(C(=O)NCCN5CCCCC5)cc4)cc3)nc21	µM	0.061
CC(C)[C@H](Nc1ncnc2cccc(F)c12)c1nc2cccc(-c3cnc(N)nc3)c2c(=O)n1-c1ccccc1	µM	7.61

Next up:
**Q:** Look up and report measured IC50 (PIK3CG (human) (UniProt P48736)) for the following compound: CCn1cc(/C=C2\Oc3cccc(O)c3C2=O)c2c(-c3ccc(C(=O)N4CCN(CCO)CC4)cc3)ccnc21
**A:** 0.55

----------
Literature IC50 values, system: UniProt:P48736.

These recorded examples may help you get a feel for the data.
test.smiles	endpoint.result
Cn1ncc2c(Nc3ccc4c(c3)CNC4=O)nc(Nc3ccc(NC(=O)Nc4cccnc4)cc3)nc21	0.011 µM
Cn1cc(/C=C2\Oc3ccc(NC(=O)Nc4cccnc4)cc3C2=O)c2c(C3=CCOCC3)ccnc21	> 10 µM
Cc1ccccc1-n1c(Cn2nc(-c3cccc(O)c3)c3c(N)ncnc32)cc2cccc(F)c2c1=O	< 0.1 µM

**Q:** // output IC50; input Cc1cnc(N)c(C(=O)N[C@@H](C)c2cc3cccc(Cl)c3c(=O)n2-c2ccccc2)n1 ; system UniProt:P48736
**A:** 1 to 10 µM

**Q:** Write down the reported IC50 (system: UniProt:P48736) of CN(C/C=C/C(=O)CCC(=O)N1CCN(Cc2cc3nc(-c4cccc5[nH]ncc45)nc(N4CCOCC4)c3s2)CC1)C(=O)OC(C)(C)C
**A:** > 1 µM

**Q:** Fill in IC50 for C/C=C/C(=O)CCC(=O)N(C)Cc1cc2nc(-c3cccc(O)c3)nc(N3CCOCC3)c2s1 tested with UniProt:P48736.
**A:** 0.1 to 1 µM

**Q:** Name the value of IC50 reported for Cn1cc(/C=C2\Oc3cccc(O)c3C2=O)c2c(-c3ccc(C(F)(F)F)cc3)ccnc21 when tested on UniProt:P48736.
**A:** > 10 µM

**Q:** Provide IC50, recorded with UniProt:P48736, of Cc1nc(NC(=O)CCCN[C@@H](C(=O)O)c2ccccc2)sc1-c1ccc(Cl)c(S(C)(=O)=O)c1
**A:** > 1 µM

----------
Record: compiled pIC50 on PIK3CG (human) from multiple reports.
pIC50: −log10 of the molar value.

Some solved cases for reference:
test.smiles	pIC50
COCCN(C)C(=O)c1nc([C@H](C)Nc2ncnc3cccnc23)cc2cccc(Cl)c12	> 5.00
C[C@H](Nc1nc(Cl)nc2nccnc12)c1cc2cccc(Cl)c2c(=O)n1-c1ccccc1	5.00 to 6.00
CC(C)Oc1ccc(-c2cnc(N)c(C(=O)N[C@@H](C)c3cc4cccc(Cl)c4c(=O)n3-c3ccccc3)n2)cc1	5.00 to 6.00

Here's the next entry for you.
**Q:** Specify pIC50 for CC(C)N1CCC(Oc2nc([C@H](C)Nc3ncnc4cccnc34)cc3cccc(-c4cnn(C)c4)c23)CC1 and stop.
**A:** > 5.00

----------
Several reports have described IC50 for PIK3CG (human) (UniProt P48736); a selection of those results is presented here.

Known results for molecules:
molecule	IC50
O=C(/C=C/C1CC1)CCC(=O)N1CCN(Cc2cc3nc(-c4cccc5[nH]ncc45)nc(N4CCOCC4)c3s2)CC1	> 1000 nM
CC(C)Oc1cc(-c2cccc3cc([C@H](C)NC(=O)c4c(N)nn5cccnc45)n(-c4ccccc4)c(=O)c23)ccn1	100 to 1000 nM
CN1CCN(c2cnc3ccc(-c4ccc5oc(N)nc5c4)nc3c2)CC1	< 1000 nM
C[C@H](Nc1ncnc2scnc12)c1cc2cccc(Cl)c2c(C(=O)NC2CCOC2)n1 (stereo partly shown)	< 10000 nM
Cc1cccc2cc([C@H](C)Nc3ncc(C(F)(F)F)c(N)n3)n(-c3ccccc3)c(=O)c12	> 10000 nM
COc1ncc(-c2ccc3ncn(CC(C)C(N)=O)c(=O)c3c2)cc1NS(=O)(=O)c1sc(C)nc1C (single isomer, unassigned)	1 nM

**Q:** Give the observed IC50 of O=C(Nc1ccncc1)Nc1ccc(-c2nc(N3CCOCC3)c3ccn(CCNc4ccc(F)cc4)c3n2)cc1 for PIK3CG (human) (UniProt P48736).
**A:** 418 nM

----------
// compounds with log10 of IC50 on PIK3CG (human) (UniProt P48736), multi-source literature
Quick note: numbers are log10 of IC50, with µM as the unit.

compound	endpoint.result
O=C(Nc1ccncc1)Nc1ccc(-c2nc(N3CCOCC3)c3ccn(CCNCCc4cnc[nH]4)c3n2)cc1	-0.61
CC(=O)Nc1ccc(Oc2nc(-c3cccc(O)c3)nc3c2cnn3C)cc1	-0.94
Cn1cc(/C=C2\Oc3ccc(NC(=O)Nc4cccnc4)cc3C2=O)c2c(N3CCOCC3)ccnc21	-0.46

**Q:** Consider the compound Cn1cc(/C=C2\Oc3cccc(O)c3C2=O)c2c(-c3ccc(S(=O)(=O)NC4CC4)cc3)ccnc21 . State its measured log10 of IC50.
**A:** -1.15

----------
pIC50: −log10 of the molar value.
Kindly find below pIC50 information for PIK3CG (human) (UniProt P48736) taken from the literature.

Answered examples (2):
compound	measured.parameter	endpoint.result
CCC(Nc1ncnc2[nH]cnc12)c1cc2cccc(C)c2c(=O)n1-c1cc(F)cc(F)c1 (stereo not shown)	pIC50	> 5.00
Cc1cccnc1-n1c(Cn2nc(-c3ccc(F)c(O)c3)c3c(N)ncnc32)cc2cccc(C)c2c1=O	pIC50	> 7.00

**Q:** Look up PIK3CG (human) (UniProt P48736) data: pIC50 of Cn1cc(/C=C2\Oc3cccc(O)c3C2=O)c2c(-c3ccc(N4CCCCC4)nc3)ccnc21 , then report it.
**A:** 6.62

**Q:** For PIK3CG (human) (UniProt P48736), give the measured pIC50 of the entry C[C@H](NC(=O)c1nccnc1N)c1cc2cccc(-c3cccnc3)c2c(=O)n1-c1ccccc1
**A:** 5.00 to 6.00

**Q:** Look up and report pIC50, with PIK3CG (human) (UniProt P48736) as system, for C[C@H](NC(=O)c1c(N)nn2cccnc12)c1cc2cccc(C#CCN)c2c(=O)n1-c1ccccc1
**A:** 6.00 to 7.00

**Q:** Report pIC50 from PIK3CG (human) (UniProt P48736) testing of C[C@H](NC(=O)c1nccnc1N)c1nc2cccc(Cl)c2c(=O)n1-c1ccccc1
**A:** 6.00 to 7.00

**Q:** Enter recorded pIC50 with PIK3CG (human) (UniProt P48736) for CN(C)c1cccc(-c2ccnc3c2c(/C=C2\Oc4cc(O)cc(O)c4C2=O)cn3C)c1 here.
**A:** 6.70

**Q:** Find pIC50 for Cc1ccccc1-n1c(Cn2nc(Br)c3c(N)ncnc32)nc2scc(C)c2c1=O on PIK3CG (human) (UniProt P48736) and write it down.
**A:** > 6.00

**Q:** Enter pIC50 (test system PIK3CG (human) (UniProt P48736)) for CC(C)(C#N)c1ccc(-c2n[nH]c3cnc4ccc(-c5cccnc5)cc4c23)cc1
**A:** 7.60 to 8.00

**Q:** Send back PIK3CG (human) (UniProt P48736) pIC50 of Cn1cc(/C=C2\Oc3ccc(NC(=O)OCCO)cc3C2=O)c2c(-c3ccccc3)ccnc21 only.
**A:** < 5.00

**Q:** Quote pIC50 with test system PIK3CG (human) (UniProt P48736) for COc1ccc2cc(-c3nc(Oc4ccc5[nH]ccc5c4)c4cnn(C)c4n3)ccc2c1
**A:** < 5.00

**Q:** // fetch pIC50; item: C[C@H](Nc1ncnc(N)n1)c1cc2cccc(Cl)c2c(=O)n1-c1cccc(F)c1 ; system: PIK3CG (human) (UniProt P48736)
**A:** 5.00 to 6.00
